testedTarget: RSV N-RNA complex (Human respiratory syncytial virus A, UniProt P03418)
Construct: Full-length N was produced by co-expression with the C-terminal domain of RSV P protein in E. coli BL21(DE3); made in house; host or cells: E. coli BL21(DE3), co-transformed with pET-N and pGEX-P(161–241)
Sequence (P03418 whole entry, looked up, the tested form may be a part, one chain of several): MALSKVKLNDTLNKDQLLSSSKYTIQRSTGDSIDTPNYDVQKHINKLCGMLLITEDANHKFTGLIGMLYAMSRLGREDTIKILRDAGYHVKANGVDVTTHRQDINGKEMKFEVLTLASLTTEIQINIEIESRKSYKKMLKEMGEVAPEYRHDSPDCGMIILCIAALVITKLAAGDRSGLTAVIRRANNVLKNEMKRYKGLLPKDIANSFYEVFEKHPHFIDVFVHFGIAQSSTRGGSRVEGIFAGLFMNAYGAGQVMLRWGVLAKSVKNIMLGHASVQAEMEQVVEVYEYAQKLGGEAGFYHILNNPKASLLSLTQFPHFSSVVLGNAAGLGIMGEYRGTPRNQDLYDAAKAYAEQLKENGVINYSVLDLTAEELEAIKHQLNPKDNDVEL
assayMethodText: Fluorescence polarization inhibition of N-RNA binding to fluorescent probes
conditionDetails: probe BCN6E 200 nM, [N-RNA] 10 µM, Tris pH 8; read-out: Fitted IC50
pIC50: −log10 of the molar value.
quantityMeasured: pIC50

smilesCode	experimentalValue
O=C(O)c1cc(C(=O)O)n(Cc2ccc(Cl)cc2Cl)n1	4.85
